Experimental System: Shiga toxin 2 (Escherichia coli O157:H7) (UniProt P09385+P09386)
Protocol Summary: E. coli 0.157:H7 Shiga Toxin SOP - stx2 screening assay
Format: functional
Parameters: scale not given: direction of the effect not stated beside the values
Condition Summary: 30 µM
Lab note: compare Percent Effect with -30%, writing yes (1) if less and no (0) if equal or more.

Study these solved cases before continuing.
{"columns": ["Compound", "Assigned Label"],
 "data": [
  ["COc1cc(S(=O)(=O)N2CCCc3ccccc32)cc(C(=O)O)c1OC", "no (0)"],
  ["O=C(c1ccc2c(c1)COC2)N1CCC(Nc2cccnn2)CC1", "no (0)"],
  ["Cc1ccc(N2CCN(C(=O)COc3nccc(C)n3)CC2)nn1", "yes (1)"]
]}

Percent Effect strictly < -30% for this compound? c1cc2nccc(CC3CCCN(Cc4ncc[nH]4)CC3)c2cn1 (stereo not drawn)
yes (1)

Percent Effect strictly < -30% for this compound? O=C1c2cnc(N3CCOCC3)nc2CN1c1ccc2c(c1)OCO2
no (0)

Percent Effect strictly < -30% for this compound? Cc1cnn(C2CN(Cc3nc(C(C)(C)C)no3)C2)c1
yes (1)

Percent Effect strictly < -30% for this compound? CC(NC(=O)NCCCn1cncn1)c1ccc2c(c1)OCCO2 (stereo not drawn)
no (0)

Percent Effect strictly < -30% for this compound? COc1ccc(-c2nc(CN3CCN(CCO)CC3)co2)cc1
yes (1)

Percent Effect strictly < -30% for this compound? O=C1[C@H]2CN(Cc3ccoc3)C[C@H]2CN1Cc1ccncc1
yes (1)

Percent Effect strictly < -30% for this compound? COc1cc(N2CCCC(c3nccn3CCN(C)C)C2)nc(N)n1 (stereo not drawn)
no (0)
